The reported measurements were obtained from PubChem BioAssay (NCI).

System: UACC-257 melanoma
Experiment: NCI tumour cell line growth inhibition, 48 h
Reported GI50 values are given for each entry in this list.
Measured Attribute: GI50

compound="CC(C)=CCc1cc2c(cc1O)C1=C(C(=O)C3=C(NCCS3(=O)=O)C1=O)C(C=C(C)C)O2 (stereo not given)" reported_result="3.48 µM"
compound=CN1C(=O)C(c2c[nH]c3ccccc23)=C(c2c[nH]c3ccccc23)C1=O reported_result="7.65 µM"
compound=COC(=O)c1c2c(c(C)[n+]([O-])c1C)C(=O)C(NCc1ccc(OC)cc1)=CC2=O reported_result="1.63 µM"
compound=O=C(CCCc1ccc(N(CCCl)CCCl)cc1)NCc1ccccc1 reported_result="12.1 µM"
compound=O=C1C=C(Nc2ccccc2)c2ccccc2C1=O reported_result="1.79 µM"
